tested on: MCF7; assay: cells; conditions: Homo sapiens, MCF7, 72 h
reported.metric: IC50 (nM)

input.smiles: COc1ccc(-c2oc3c(OC)c(OC)c(OC)c(O)c3c(=O)c2OC)cc1O
observed: 130
//
input.smiles: COc1ccc(-c2oc3cc(O)c(OC)c(O)c3c(=O)c2OC)cc1O
observed: 240
//
input.smiles: COc1ccc(-c2cc(=O)c3cc(OC)c(OC)c(OC)c3o2)cc1
observed: 1700

* * *

target: Epidermal growth factor receptor (Homo sapiens, UniProt P00533)
Sequence (P00533 whole entry): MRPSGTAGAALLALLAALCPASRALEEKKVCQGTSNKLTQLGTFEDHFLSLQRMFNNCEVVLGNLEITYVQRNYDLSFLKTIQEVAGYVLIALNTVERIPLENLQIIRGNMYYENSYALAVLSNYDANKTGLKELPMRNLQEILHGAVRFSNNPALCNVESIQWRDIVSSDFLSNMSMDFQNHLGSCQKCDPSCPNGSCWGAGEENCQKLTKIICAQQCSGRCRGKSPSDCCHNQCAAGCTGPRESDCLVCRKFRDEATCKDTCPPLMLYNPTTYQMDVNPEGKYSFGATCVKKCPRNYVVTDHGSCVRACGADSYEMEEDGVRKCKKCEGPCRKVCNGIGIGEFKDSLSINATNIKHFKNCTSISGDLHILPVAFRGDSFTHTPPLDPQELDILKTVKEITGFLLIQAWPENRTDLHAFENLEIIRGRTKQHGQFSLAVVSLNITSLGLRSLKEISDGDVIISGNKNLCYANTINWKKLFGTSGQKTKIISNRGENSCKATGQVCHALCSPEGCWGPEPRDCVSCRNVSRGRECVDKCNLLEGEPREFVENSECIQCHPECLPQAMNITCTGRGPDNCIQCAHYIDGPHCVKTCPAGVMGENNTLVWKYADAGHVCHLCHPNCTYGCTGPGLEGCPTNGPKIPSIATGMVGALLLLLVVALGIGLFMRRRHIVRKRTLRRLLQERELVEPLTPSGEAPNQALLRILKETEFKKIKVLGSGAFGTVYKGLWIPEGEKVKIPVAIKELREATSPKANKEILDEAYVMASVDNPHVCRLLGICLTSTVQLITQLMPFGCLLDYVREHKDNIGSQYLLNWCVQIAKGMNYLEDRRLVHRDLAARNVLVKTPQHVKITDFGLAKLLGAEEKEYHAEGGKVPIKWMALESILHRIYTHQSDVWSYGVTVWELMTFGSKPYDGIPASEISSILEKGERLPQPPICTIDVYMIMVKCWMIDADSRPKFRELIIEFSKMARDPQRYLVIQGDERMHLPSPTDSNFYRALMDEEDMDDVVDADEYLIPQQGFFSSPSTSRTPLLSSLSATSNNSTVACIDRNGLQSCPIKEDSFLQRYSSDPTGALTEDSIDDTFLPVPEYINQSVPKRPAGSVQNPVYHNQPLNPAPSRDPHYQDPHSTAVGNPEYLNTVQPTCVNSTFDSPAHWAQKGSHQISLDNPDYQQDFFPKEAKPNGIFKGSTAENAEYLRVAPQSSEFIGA
reported.metric: IC50 (nM)

input.smiles: COc1cc(O)c2c(O)c(-c3cccc(Cl)c3)cnc2c1
reported.metric: IC50
display.unit: nM
observed: 40
